- Test system: furin, P09958;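 note: purified furin at 1:10 enzyme:substrate in 50 mM HEPES pH 7.5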
- Sequence (P09958 whole entry): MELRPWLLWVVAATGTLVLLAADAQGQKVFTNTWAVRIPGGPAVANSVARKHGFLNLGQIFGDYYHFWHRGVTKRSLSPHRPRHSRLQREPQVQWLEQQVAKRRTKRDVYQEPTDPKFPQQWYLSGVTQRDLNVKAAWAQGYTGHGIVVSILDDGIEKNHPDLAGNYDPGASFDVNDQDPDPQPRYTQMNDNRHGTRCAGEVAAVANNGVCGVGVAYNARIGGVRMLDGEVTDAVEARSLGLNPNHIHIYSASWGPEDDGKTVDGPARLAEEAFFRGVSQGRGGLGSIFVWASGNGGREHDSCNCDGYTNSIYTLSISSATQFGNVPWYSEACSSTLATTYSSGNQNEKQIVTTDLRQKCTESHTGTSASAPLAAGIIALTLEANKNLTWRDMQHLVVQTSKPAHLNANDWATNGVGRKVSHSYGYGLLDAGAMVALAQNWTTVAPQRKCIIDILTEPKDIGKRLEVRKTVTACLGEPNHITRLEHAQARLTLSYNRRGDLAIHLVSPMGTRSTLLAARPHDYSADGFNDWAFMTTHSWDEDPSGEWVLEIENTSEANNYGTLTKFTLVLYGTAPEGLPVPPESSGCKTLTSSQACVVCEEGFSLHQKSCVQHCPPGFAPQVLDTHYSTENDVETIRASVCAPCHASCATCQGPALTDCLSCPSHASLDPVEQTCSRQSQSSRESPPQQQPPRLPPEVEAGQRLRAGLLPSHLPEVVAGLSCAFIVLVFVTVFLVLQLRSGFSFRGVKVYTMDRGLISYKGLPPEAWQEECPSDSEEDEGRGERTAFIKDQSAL
- Method summary: furin cleavage Z-score vs untreated control; higher = more cleavage, active = 3.5 or more, inactive = 1 or less, 8 variable residues between constant flanks
- Assay context: 30 min
The list shows a part of the results. No count for the full screen is at hand.
Observable: furin cleavage Z-score
I only need the number, thanks.

Past entries and their recorded results:
{"columns": ["Monomer sequence", "furin cleavage Z-score"],
 "data": [
  ["CAIDVVCCSMAGNASASA [HC2104]", 1.61],
  ["CANDIREKREAGNASASA [FS-179]", 4.65]
]}

Just so you know, measured furin cleavage Z-score for CAEERREKREAGNASASA [FS-905] came out at 6.98

Given item CAWARRHKREAGNASASA [FS-1502] , the value recorded as its furin cleavage Z-score is 7.82
